biological target: Rat GPR40 (Rattus norvegicus, UniProt Q8K3T4); construct: expressed in transfected cells; assay: EC50 by FLIPR calcium assay in CHO cells stably expressing rat GPR40; type: cell-based
Sequence (Q8K3T4 whole entry): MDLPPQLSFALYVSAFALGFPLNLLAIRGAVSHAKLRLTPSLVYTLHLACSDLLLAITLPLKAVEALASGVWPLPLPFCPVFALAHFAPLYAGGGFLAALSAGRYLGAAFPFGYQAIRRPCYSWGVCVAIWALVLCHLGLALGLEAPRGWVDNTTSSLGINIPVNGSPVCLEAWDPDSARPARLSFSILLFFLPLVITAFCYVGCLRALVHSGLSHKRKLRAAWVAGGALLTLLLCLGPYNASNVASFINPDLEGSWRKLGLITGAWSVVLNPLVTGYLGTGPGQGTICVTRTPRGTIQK
pEC50: −log10 of the molar value.
Attribute Measured: pEC50

In [3]: df
Out[3]:
            structure_smiles_string  attribute_measured  meas_value
0  CC/C=C\C/C=C\C/C=C\CCCCCCCC(=O)O               pEC50        5.40

* * *

biological target: human GPR40 (Homo sapiens); construct: The resulting fragment (ca. 1 kb) was introduced into vector pAKKO-111, which was used for transfection of CHO cells; expressed in transfected cells; test: EC50 by FLIPR calcium assay in CHO cells stably expressing human GPR40; type: cell-based; settings: intracellular calcium, FLIPR, stable CHO line; read-out: EC50 Human GPR40
Sequence (O14842 whole entry, the tested form may be a part): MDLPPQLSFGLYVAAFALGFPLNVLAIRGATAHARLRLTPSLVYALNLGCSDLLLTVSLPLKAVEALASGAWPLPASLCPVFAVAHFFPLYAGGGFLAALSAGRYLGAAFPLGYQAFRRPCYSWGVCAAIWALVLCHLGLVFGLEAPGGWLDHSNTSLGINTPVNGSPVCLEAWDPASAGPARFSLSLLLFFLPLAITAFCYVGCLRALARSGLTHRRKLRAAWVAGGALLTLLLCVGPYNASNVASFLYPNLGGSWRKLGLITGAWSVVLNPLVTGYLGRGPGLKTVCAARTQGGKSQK
Listing: EC50 of selected molecules
Attribute Measured: EC50 (µM)

>>> df
                                   molecule                assay_target  attribute_measured  unit_annotation  censoring_operator  meas_value
0     CCCCC/C=C\C/C=C\C/C=C\C/C=C\CCCC(=O)O  human GPR40 (Homo sapiens)                EC50               µM                   =         2.4
1                   CCCCCCCCCCCCCCCCCC(=O)O  human GPR40 (Homo sapiens)                EC50               µM                   >         300
2  CCCCCC(O)C(O)CC=CCC=CCC=CCCCC(=O)O (mixture of isomers) [14,15-Dihydroxyeicosatrienoic acid]  human GPR40 (Homo sapiens)                EC50               µM                   =         1.1
3                CCCCCCCC/C=C/CCCCCCCC(=O)O  human GPR40 (Homo sapiens)                EC50               µM                   =         4.7

* * *

target: human GPR40 (Homo sapiens); construct: The resulting fragment (ca. 1 kb) was introduced into vector pAKKO-111, which was used for transfection of CHO cells; expressed in transfected cells; test: EC50 by FLIPR calcium assay in CHO cells stably expressing human GPR40; type: cell-based; settings: intracellular calcium, FLIPR, stable CHO line; read-out: EC50 Human GPR40
Listing: log10(EC50) of selected molecules
Attribute Measured: log10(EC50) (log10 of the value in µM)

In [3]: df
Out[3]:
                                   molecule  attribute_measured  meas_value
0  CC/C=C\C/C=C\C/C=C\C/C=C\C/C=C\C/C=C\CCC(=O)O         log10(EC50)        0.04
1  CCCCCC=CCC1OC1CC=CCC=CCCCC(=O)O (mixture of isomers)         log10(EC50)        0.15
2          CCCCC/C=C\C/C=C\C/C=C\CCCCC(=O)O         log10(EC50)        0.66
3                           CCCCCCCCCC(=O)O         log10(EC50)        1.63
4                         CCCCCCCCCCCC(=O)O         log10(EC50)        0.76
5  CCCCCC=CCC=CCC=CCC1OC1CCCC(=O)O (mixture of isomers)         log10(EC50)        0.89
6             CCCCC/C=C\C/C=C\CCCCCCCC(=O)O         log10(EC50)        0.26
7  CCCCCC=CCC=CCC1OC1CC=CCCCC(=O)O (mixture of isomers)         log10(EC50)        0.79
